Data credit: paper PMC6748986

Target: CepR (Burkholderia cenocepacia, UniProt B4EMD0)
Sequence (B4EMD0 1-239): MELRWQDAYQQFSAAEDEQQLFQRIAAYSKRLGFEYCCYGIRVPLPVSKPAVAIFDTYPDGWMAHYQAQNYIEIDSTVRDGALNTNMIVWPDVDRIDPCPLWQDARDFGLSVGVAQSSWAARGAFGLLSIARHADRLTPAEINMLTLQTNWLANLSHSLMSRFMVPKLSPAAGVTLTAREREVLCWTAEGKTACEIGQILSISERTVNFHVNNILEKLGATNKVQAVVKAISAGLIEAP
Assay: CepR antagonism in E. coli β-galactosidase reporter (Ec-reporter), competition against C8-AHL
Format: cell-based, B. cenocepacia
Conditions: Ec-reporter; against 10 nM C8-AHL
value.kind: pIC50
Answers are plain numbers, as −log10 of the molar value.

{"columns": ["molecule", "pIC50"],
 "data": [
  ["CCCCCCCS(=O)(=O)N[C@H]1CCOC1=O", 6.42],
  ["O=C(Cc1ccccc1Cl)N[C@H]1CCOC1=O", 5.23]
]}

Fill in pIC50 for each of the 4 molecules listed.
1. O=C(Cc1cccc(Cl)c1)N[C@H]1CCOC1=O
2. CCCCCC(=O)N[C@H]1CCOC1=O [Compound C6-AHL, hexanoyl L-homoserine lactone, reference compound]
3. O=C(Cc1cccc(C(F)(F)F)c1)N[C@H]1CCOC1=O
4. CCCCCC(=O)CC(=O)N[C@H]1CCOC1=O [3’O-C8-AHL, reference compound]

1: 4.41; 2: 5.12; 3: 5.48; 4: 4.80

----------
Target: UniProt:B4EMD0
Sequence (B4EMD0 1-239): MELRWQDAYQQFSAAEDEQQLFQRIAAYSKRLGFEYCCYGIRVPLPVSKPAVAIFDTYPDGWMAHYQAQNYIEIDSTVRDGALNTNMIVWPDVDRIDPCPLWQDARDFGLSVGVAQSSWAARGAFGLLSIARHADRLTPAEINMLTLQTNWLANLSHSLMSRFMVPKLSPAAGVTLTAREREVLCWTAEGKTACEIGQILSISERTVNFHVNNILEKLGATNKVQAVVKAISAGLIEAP
Test: CepR antagonism in E. coli β-galactosidase reporter (Ec-reporter), competition against C8-AHL
Type: cell-based, B. cenocepacia
Conditions: Table S3, Ec-reporter
value.kind: IC50 (µM)
One number for each entry, in µM.

{"columns": ["compound", "IC50 (µM)"],
 "data": [
  ["O=C(Cc1ccc([N+](=O)[O-])cc1)N[C@H]1CCOC1=O [Compound C13]", 6.7]
]}

Fill in IC50 for each of the 3 compounds listed.
1. O=C(Cc1cccc2ccccc12)N[C@H]1CCOC1=O [Compound E13]
2. O=C(Cc1ccccc1Br)N[C@H]1CCOC1=O [Compound C9]
3. O=C(Cc1ccccc1I)N[C@H]1CCOC1=O [Compound C12]

[4.9, 40, 22]

----------
Field: Inh% (100-Act%). Provide a value for each of the molecules that follow.
Biological target: CepR (Burkholderia cenocepacia, UniProt B4EMD0)
Test: CepR antagonism in E. coli β-galactosidase reporter (Ec-reporter), competition against C8-AHL
Assay type: cell-based, B. cenocepacia
Details: Table S3, Ec-reporter; screening conc. 100 μM; against 10 nM C8-AHL
One number for each entry, in %.

Here's what some known entries look like.
{"columns": ["molecule", "measurement.unit", "recorded.value"],
 "data": [
  ["Cc1nc(-c2ccccc2)oc1CC(=O)N[C@H]1CCOC1=O [Compound D4]", "%", 22],
  ["O=C(Cc1ccc(-c2ccccc2)cc1)N[C@H]1CCOC1=O [Compound C18]", "%", -20]
]}

Fill in Inh% (100-Act%) for each of the 4 molecules listed.
1. O=C(Cc1cccc([N+](=O)[O-])c1)Nc1ccccc1 [Compound F25]
2. O=C(CCc1c[nH]c2ccccc12)N[C@H]1CCOC1=O [Compound B14]
3. O=C(C=Cc1ccccc1)NC1CCOC1=O (stereo not shown) [Compound B10]
4. O=C(Cc1ccc(I)cc1)N[C@H]1CCOC1=O [Compound C10]

12
-40
11
-10

Fill in Inh% (100-Act%) for each of the 4 molecules listed.
1. O=C(Cc1cccc([N+](=O)[O-])c1)NC1CCSC1=O (stereo not shown) [Compound F11]
2. CCCCCCCCCC(=O)CC(=O)NCc1ccccc1F [Compound F26]
3. O=C(Cc1ccc(Br)cc1)N[C@H]1CCOC1=O [Control 7, reference compound]
4. CC(C)Oc1ccc(C(=O)N[C@H]2CCOC2=O)cc1 [Compound R3]

[25, 20, 89, -10]

----------
Biological target: CepR (Burkholderia cenocepacia)
Sequence (B4EMD0 1-239): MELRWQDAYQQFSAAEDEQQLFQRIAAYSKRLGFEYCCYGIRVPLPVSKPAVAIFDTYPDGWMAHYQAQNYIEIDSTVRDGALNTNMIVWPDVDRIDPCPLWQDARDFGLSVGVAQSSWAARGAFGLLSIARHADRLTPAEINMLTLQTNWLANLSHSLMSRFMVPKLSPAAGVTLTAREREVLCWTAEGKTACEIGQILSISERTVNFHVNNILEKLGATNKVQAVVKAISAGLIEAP
Test: CepR antagonism in E. coli β-galactosidase reporter (Ec-reporter), competition against C8-AHL
Format: cell-based, B. cenocepacia
Conditions: Table S3, Ec-reporter; screening conc. 100 μM; against 10 nM C8-AHL
value.kind: Inh% (100-Act%)
One number for each entry, in %.

Here's what some known entries look like.
{"columns": ["molecule", "tested.system", "Inh% (100-Act%)"],
 "data": [
  ["N#Cc1ccc(CC(=O)N[C@H]2CCOC2=O)cc1 [Compound E4]", "CepR (Burkholderia cenocepacia)", 29],
  ["O=C(Cc1cccc(I)c1)N[C@H]1CCOC1=O [Compound C11]", "CepR (Burkholderia cenocepacia)", 27]
]}

Fill in Inh% (100-Act%) for each of the 7 molecules listed.
1. Cc1ccc(C(=O)CCC(=O)N[C@H]2CCOC2=O)cc1 [Compound D6]
2. O=C(COc1ccc([N+](=O)[O-])cc1)N[C@H]1CCOC1=O [Compound E24]
3. CCCCCCCCCC(=O)CC(=O)Nc1ccccc1 [3’O-C12-analine, reference compound]
4. CC(C)(C)OC(=O)c1ccc(C(=O)N[C@H]2CCOC2=O)cc1 [Compound Q13]
5. CCCCCCCCCCCCCC(=O)CC(=O)NC1CCOC1=O (stereo not shown) [3’O-C16-AHL, reference compound]
6. O=C(COc1ccc(I)cc1)N[C@H]1CCOC1=O [Compound E22]
7. Nc1ccc(CC(=O)N[C@H]2CCOC2=O)cc1 [Compound C21]

1: -50; 2: -10; 3: 16; 4: 11; 5: -50; 6: -30; 7: -20

Fill in Inh% (100-Act%) for each of the 6 molecules listed.
1. CCCCCC(=O)CC(=O)N[C@@H]1CCOC1=O [D-3’O-C8-AHL]
2. COc1ccc(C(=O)N[C@H]2CCOC2=O)cc1 [Compound Q6]
3. O=C(Cc1ccc(-c2ccccc2)cc1)NC1CCSC1=O (stereo not shown) [Compound F13]
4. CCCCCCCCCC(=O)NC1CCCC1 [Compound C10-CPA, reference compound]
5. O=C(CCCc1ccccc1)N[C@H]1CCOC1=O [Control 6, reference compound]
6. CCCCCC(=O)CC(=O)NC1CCSC1=O (stereo not shown) [3’O-C8-TL]

[-40, -20, -20, 4.0, 3.0, -20]

----------
Target: CepR (Burkholderia cenocepacia, UniProt B4EMD0)
Sequence (B4EMD0 1-239): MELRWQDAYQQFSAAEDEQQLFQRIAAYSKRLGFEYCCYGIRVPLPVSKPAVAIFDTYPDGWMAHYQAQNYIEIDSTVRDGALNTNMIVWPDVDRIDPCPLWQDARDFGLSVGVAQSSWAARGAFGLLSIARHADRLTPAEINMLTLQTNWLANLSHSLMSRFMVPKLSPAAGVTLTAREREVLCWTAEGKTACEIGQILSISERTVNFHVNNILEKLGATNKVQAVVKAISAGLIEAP
Assay: CepR agonism in E. coli β-galactosidase reporter (Ec-reporter) JLD271 [pJN105-cepR + pSC11-cepI]
Assay type: cell-based, B. cenocepacia
Details: Table S2, Ec-reporter; screening conc. 100 μM
value.kind: Act% (%)
Answers are plain numbers, in %.

Here's what some known entries look like.
{"columns": ["compound", "measurement.unit", "recorded.value"],
 "data": [
  ["O=C(Cc1cccc(Br)c1)N[C@H]1CCOC1=O", "%", 12],
  ["CCCCCCCC(=O)CC(=O)N[C@H]1CCOC1=O [3’O-C10-AHL, reference compound]", "%", 110],
  ["CCCCCCCCCC(=O)CC(=O)Nc1ccccc1 [3’O-C12-analine, reference compound]", "%", 52],
  ["CCCCCC(=O)CC(=O)N[C@H]1CCOC1=O [3’O-C8-AHL, reference compound]", "%", 86],
  ["Cc1cccc(CC(=O)N[C@H]2CCOC2=O)c1 [Compound E1]", "%", 16],
  ["O=C(CCc1ccco1)N[C@H]1CCOC1=O [Compound D2]", "%", 70],
  ["O=C(N[C@H]1CCOC1=O)c1ccc(F)cc1", "%", 11],
  ["O=C(Cc1cccc([N+](=O)[O-])c1)NC1CCOC1=O (stereo not drawn)", "%", 16],
  ["CCCCCC(O)CC(=O)N[C@H]1CCOC1=O (stereo partly drawn) [3’OH-C8-AHL, reference compound]", "%", 84],
  ["O=C(Cc1ccc(Br)cc1)N[C@@H]1CCOC1=O", "%", -0.5]
]}

Fill in Act% for each of the 5 compounds listed.
1. O=C(CCc1cccs1)N[C@H]1CCOC1=O
2. O=C(Cc1c(F)c(F)c(F)c(F)c1F)N[C@H]1CCOC1=O
3. O=C(N[C@H]1CCOC1=O)c1ccc([N+](=O)[O-])cc1
4. O=C(Cc1ccccc1)NC1CCCC1
5. CCCCCCCCOc1ccc(C(=O)N[C@H]2CCOC2=O)cc1

[87, 0.1, 10, 7.4, 62]
